From: PubChem BioAssay (NCI)

system: SK-MEL-28 melanoma; assay: NCI tumour cell line growth inhibition, 48 h; in the data active means GI50 below about 0.43 µM; inactive means the rest
Labels: True (active), False (inactive)

compound	experimental_system	assigned_label
Clc1ccc(Nc2nnc(CNc3ccccc3)c3ccccc23)cc1	SK-MEL-28 melanoma	False
C/C(=C1\SC(=NCc2cccs2)NC1=O)c1ccc2ncccc2c1	SK-MEL-28 melanoma	False
O=c1[nH]cnc2c1ccn2C1OC(CO)C(O)C1O (stereo unspecified)	SK-MEL-28 melanoma	False
Cn1cc(-c2nonc2-c2cn(C)c3ccc(F)cc23)c2ccccc21	SK-MEL-28 melanoma	False
O=c1oc2ccc(Br)cc2c(=O)n1-c1ccc(Br)cc1F	SK-MEL-28 melanoma	True
Oc1c(I)cc(I)cc1CNCCN(Cc1ccccn1)Cc1ccccn1	SK-MEL-28 melanoma	False
O=C1/C(=C\c2ccc(Cl)cc2)CCOc2c1ccc1ccccc21	SK-MEL-28 melanoma	False
Cc1ncc(C(=O)Nc2ccc(CN3CCN(C)CC3)c(C(F)(F)F)c2)cc1C#Cc1c(N)ncc2ccc(F)cc12	SK-MEL-28 melanoma	True
COc1cc2c(/C=C3\C(=O)N(C)c4ccc(O)cc43)c[nH]c2cc1C	SK-MEL-28 melanoma	False
[C-]#[O+].[C-]#[O+].[C-]#[O+].[C-]#[O+].[O-]C(c1ccccc1[PH+]1OC(C(F)(F)F)(C(F)(F)F)c2ccccc21)(C(F)(F)F)C(F)(F)F.[Re] (stereo unspecified)	SK-MEL-28 melanoma	False
O=C1NC(=NCc2ccccc2Br)S/C1=C\c1ccc2ncccc2c1	SK-MEL-28 melanoma	False

====

test system: SN12C renal; experiment: NCI tumour cell line growth inhibition, 48 h
measured_property: TGI (µM)

>>> print(df.to_string())
                                    compound  units  measurement_qualifier  measured_result
 0  C=CCN1C(N)=C(C#N)C(C#N)(C#N)C1CCC (centres undefined)     µM                      >              100
 1  COC(=O)c1cc(C)n(CN(Cn2nc(C(=O)OC)cc2C)c2ccccc2)n1     µM                      >              100
 2   Clc1ccc(Nc2nnc(CNc3ccccc3)c3ccccc23)cc1     µM                      =             18.9
 3             COc1ccc(C(=O)NCCC2=CCCCC2)cc1     µM                      >              100
 4           O=C(/C=C/c1cccs1)c1ccc(Cl)cc1Cl     µM                      =             31.2
 5  Nc1ccc(Cc2ccc(N=Cc3ccc(OCc4cccc(COc5ccc(C=Nc6ccc(Cc7ccc(N)cc7)cc6)cc5)n4)cc3)cc2)cc1     µM                      >              100
 6  COc1ccc(C2(O)C(S(=O)(=O)c3ccc(C)cc3)=Cc3ccc(OC)cc32)cc1 (centres undefined)     µM                      >              100
 7  CC(C)NC(=O)OCc1c(COC(=O)NC(C)C)c(-c2ccc[n+](COC(=O)C(C)C)c2)n2c1CCC2     µM                      >              100
 8  CCN1C(C)(C)CC(Oc2ccc(C(=O)Nc3ccc(NC(=O)Nc4cc(C(C)(C)C)on4)cc3)nc2)CC1(C)C     µM                      =              3.4
 9  CN1c2ccc(O)c(O)c2-c2cc(O)cc3c2C1CCC3 (centres undefined)     µM                      =             51.7
10  O=C(NCCCN1CCC(N2CCCCC2)CC1)C1=Cc2cc(Br)ccc2OC1     µM                      =             24.1
11  CSc1nc(N)cc(Oc2ccc(-c3nc(Nc4cccc(C(F)(F)F)c4)n[nH]3)cc2)n1     µM                      =             12.3
12  Cn1cc(-c2nonc2-c2cn(C)c3ccc(F)cc23)c2ccccc21     µM                      >              100
13           CSC(SC)=C(C#N)C(=O)Nc1ccc(C)cc1     µM                      >              100

====

tested on: OVCAR-8 ovarian; assay: NCI tumour cell line growth inhibition, 48 h
This listing pairs compounds with measured TGI.
measured_property: TGI

>>> print(df.to_string())
                                    compound  experimental_system  measured_result
 0  CCN(CC)c1ccc(/C=N/NC(=O)c2ccc(S(C)(=O)=O)cc2)c(O)c1      OVCAR-8 ovarian        > 69.5 µM
 1  NC1CCCCC1N.O=C([O-])c1cc(S(=O)(=O)Nc2cc(S(=O)(=O)[O-])cc3cc(S(=O)(=O)[O-])cc(O)c23)ccc1[O-].[Pt+4]      OVCAR-8 ovarian         > 100 µM
 2         Cc1ccc(NC(=O)/C=C/c2ccccc2)c(C)c1      OVCAR-8 ovarian         > 100 µM
 3  C#C[C@]1(O)CCC2C3CCc4cc(Oc5nc(F)nc(-n6c(C)nc7cc8ccccc8cc76)n5)ccc4C3CCC21C (stereo partly specified)      OVCAR-8 ovarian         > 100 µM
 4  O=C(CSc1nnc(-c2ccccn2)s1)N/N=C/c1ccc([N+](=O)[O-])cc1      OVCAR-8 ovarian         > 100 µM
 5  COc1cccc2c(=O)c3c(n(C)c12)OC(C(C)C)C3 (stereo unspecified)      OVCAR-8 ovarian         > 100 µM
 6  COc1ccc(C2(O)C(S(=O)(=O)c3ccc(C)cc3)=Cc3ccc(OC)cc32)cc1 (stereo unspecified)      OVCAR-8 ovarian         > 100 µM
 7                  NCCNS(=O)(=O)c1ccc(N)cc1      OVCAR-8 ovarian         > 100 µM
 8  CC(C)C(N=c1c2ccccc2n(O)c2ccccc12)C(=O)O (stereo unspecified)      OVCAR-8 ovarian         > 100 µM
 9           COc1ccc2cc(C(=O)CCC(=O)O)ccc2c1      OVCAR-8 ovarian         > 100 µM
10  CN(C(=O)Nc1ccc(Cl)c(Cl)c1)C1CCCC[C@@H]1N1CCCC1 (stereo partly specified)      OVCAR-8 ovarian         > 100 µM
11    COc1ccc2c(c1)CCc1c(C(C)=O)c3ccccc3n1C2      OVCAR-8 ovarian         > 100 µM
12            Clc1ccc2c(NCCNC3CCCCC3)ccnc2c1      OVCAR-8 ovarian          31.9 µM
13  COc1cccc(CC2C(=O)N=C(NC(C)=O)N2C)c1OC(C)=O (stereo unspecified)      OVCAR-8 ovarian         > 100 µM
14  CC(C)(C)C1=NC(=P(c2ccccc2)(c2ccccc2)c2ccccc2)C(=O)O1      OVCAR-8 ovarian         > 100 µM
15                  C=CCN1CN(C2CCCCC2)CSC1=S      OVCAR-8 ovarian          40.8 µM
16       O=C(NCc1ccccc1)c1cc2ccc(O)c(O)c2cn1      OVCAR-8 ovarian          23.9 µM
17  Cc1nc(-c2nc(C)c(C(=O)/C=C/c3ccc([N+](=O)[O-])cc3)s2)sc1C(=O)/C=C/c1ccc([N+](=O)[O-])cc1      OVCAR-8 ovarian         > 100 µM
18                CCc1nnc(CC)n1N1C(=O)CCC1=O      OVCAR-8 ovarian         > 100 µM
19  CCOC(=O)c1c(SC(=O)C(C)(C)Oc2ccc(Cl)cc2)n(-c2ccccc2)c(=S)n(-c2ccccc2)c1=O      OVCAR-8 ovarian          42.1 µM
20  O=C1C(Br)=CC2C1C1C3CCC3C2(Br)C12OCCO2 (stereo unspecified)      OVCAR-8 ovarian          12.3 µM
21             COc1ccc(C(=O)NCCC2=CCCCC2)cc1      OVCAR-8 ovarian         > 100 µM
22  COc1cccc(/C=C(\NC(C)=O)c2nc3ccc(Cl)cc3[nH]2)c1      OVCAR-8 ovarian         > 100 µM
23  O=C(Nc1ccc2[nH]c3c(-c4ccccc4)nccc3c2c1)c1ccccc1[N+](=O)[O-]      OVCAR-8 ovarian         > 100 µM
24    Cc1cc2c(=O)cc(-c3cccs3)oc2c(C(=O)O)c1C      OVCAR-8 ovarian         > 100 µM
25          c1cc2ccc3cc4ncccc4c4ccc(c1)c2c34      OVCAR-8 ovarian          67.4 µM
26          COc1ccc(C(=O)O)c(Br)c1OCc1ccccc1      OVCAR-8 ovarian         > 100 µM
27           O=C1C(NCCF)=C(Cl)C(=O)c2ncccc21      OVCAR-8 ovarian          3.27 µM
28  Cc1cc2c(c3c1c1ccccc1n3C)C(=O)c1ccccc1C2=O      OVCAR-8 ovarian         > 100 µM
29  O=C(Cc1nc(-c2ccccc2)cc(=O)n1-c1ccccc1Cl)c1ccncc1      OVCAR-8 ovarian         > 100 µM
30  COc1cc(-c2cc(/C=C3\C(=O)Nc4cc(Cl)ccc43)[nH]n2)cc(OC)c1OC      OVCAR-8 ovarian          5.32 µM
31  CN1c2ccc(O)c(O)c2-c2cc(O)cc3c2C1CCC3 (stereo unspecified)      OVCAR-8 ovarian          65.6 µM
32  NC(Cc1ccc(O)c(O)c1)P(=O)(O)O (stereo unspecified)      OVCAR-8 ovarian         > 100 µM
33  COC1=CC(=O)[C@]2(C)[C@H](C1=O)C(C)[C@H]2c1ccc(OC)cc1 (stereo partly specified)      OVCAR-8 ovarian         > 100 µM
34  CC(C)c1cc2c(c(O)c1O)[C@@]1(C)CCCC(C)(C)C1=C(O)C2      OVCAR-8 ovarian          6.99 µM
35  COc1ccc(C2C(C#N)=C(N)Oc3c2sc2c(F)cccc32)cc1 (stereo unspecified)      OVCAR-8 ovarian          14.5 µM
36  O=C(N=Nc1c(O)[nH]c2ccccc12)C(O)(c1ccccc1)c1ccccc1      OVCAR-8 ovarian          67.3 µM
37  CC(=O)N1C(Nc2ccccc2)CCN1c1ccccc1 (stereo unspecified)      OVCAR-8 ovarian          > 10 µM
38  C/C(=C1\SC(=NCc2cccs2)NC1=O)c1ccc2ncccc2c1      OVCAR-8 ovarian          > 25 µM
39      O=C1OC(c2ccccc2)=N/C1=C\c1ccc(Cl)cc1      OVCAR-8 ovarian         > 100 µM
40  Cc1cc(S(=O)(=O)NC2=NCC(C)NN2)c(S)cc1Cl (stereo unspecified)      OVCAR-8 ovarian         > 100 µM
